- System: U251 CNS
- Run description: NCI tumour cell line growth inhibition, 48 h
Value type: TGI

Input line: Find TGI (U251 CNS) for the entry `O=c1c2ccccc2n2c(=S)[nH]nc2n1-c1ccccc1`
Output line: > 100 µM

Input line: Provide value of TGI for this record tested with U251 CNS: `CN(C)CCNC(=O)c1cnn(C)c1[N+](=O)[O-]`
Output line: > 100 µM

Input line: # returns recorded TGI (system: U251 CNS) for `CC(=O)Oc1ccc2oc(=O)cc(C)c2c1`
Output line: > 100 µM

Input line: Missing value: TGI, U251 CNS, entry `CCNC(=S)NNC(=O)c1csc(NC(=S)NC2CCCCC2)n1` . Fill in?
Output line: 23.7 µM

Input line: Could you share what TGI was measured for `CC(=O)Nc1ccc(NNc2cc(=O)n(C)c(=O)[nH]2)cc1` , tested on U251 CNS?
Output line: 24 µM

Input line: Request body: readout TGI, system U251 CNS, query `O=S(=O)(O)c1ccc(N=Nc2ccc(N=Nc3c(O)c(S(=O)(=O)O)cc4cc(S(=O)(=O)O)ccc34)cc2)cc1` . Return the value.
Output line: > 100 µM

* * *

- Test system: SK-MEL-5 melanoma
- Run description: NCI tumour cell line growth inhibition, 48 h
Value type: TGI

Input line: # get_value(readout='TGI', item= `CCCCCCCCCCCC[C@H](O)[C@H]1CC[C@H]([C@H](O)CCCC[C@H](O)CCCCC[C@@H](O)CC2=C[C@H](C)OC2=O)O1` )
Output line: 15.6 µM

Input line: Field request: TGI | item: C=CCOC(C)n1c(C)c(Br)c(=O)[nH]c1=O (stereo unspecified)
Output line: > 100 µM

Input line: Look up TGI: COc1ccc(C(O)c2cc3c(N)c(C(=O)Nc4cccc(OC)c4)sc3nc2C)cc1 (stereo unspecified)
Output line: 5.42 µM

Input line: Value lookup for TGI; key = CCOC(=O)C1(c2ccccc2)CCCNCC1 (stereo unspecified)
Output line: > 100 µM

Input line: Entry under review: `CC(=O)Oc1ccc2oc(=O)cc(C)c2c1` . Reported TGI?
Output line: > 100 µM

Input line: Could you tell me which TGI is on file for `O=[N+]([O-])c1nccn1COCCI` ?
Output line: > 100 µM

Input line: Which TGI reading was recorded for the compound `c1cc2sc1CSCCSCCSC2` ?
Output line: > 100 µM

Input line: Bench note: what TGI did COC(=O)C(CCC1CC(OC)N(C(=O)OCc2ccccc2)C1)N=Cc1ccccc1 (stereo unspecified) show?
Output line: 83.9 µM

Input line: // query TGI value for entry `CC(C)(C)OC(=O)NCCCCCCC(=O)Cc1ccccc1`
Output line: > 100 µM

Input line: Which measured TGI value corresponds to `CN(CCNC(=O)c1nn(-c2ccccc2)c2c1ccc1ccccc12)CCNC(=O)c1nn(-c2ccccc2)c2c1ccc1ccccc12` ?
Output line: 3.1 µM

Input line: Requested read-out: TGI. Entry: `Cc1nc2ccccc2c(=O)n1NC(=S)Nc1ccccc1`
Output line: > 100 µM

* * *

- Test system: TK-10 renal
- Run description: NCI tumour cell line growth inhibition, 48 h
Value type: TGI

Input line: Need TGI, item CCOC(=O)N1C(=O)C2C3C=CC(C2C1=O)C1C2C(=O)N(C(=O)OCC)C(=O)C2C31 (configuration not stated)
Output line: > 100 µM

Input line: // returns reported TGI for input `c1cc2sc1CSCCSCCSC2`
Output line: > 100 µM

Input line: Any idea what TGI was measured for `O=C(O)COc1cc(-c2ccccc2)nc2ccc(F)cc12` ?
Output line: > 100 µM

Input line: Endpoint output: TGI of `CN(C)CCNC(=O)c1cc([N+](=O)[O-])cn1C` . Value?
Output line: > 100 µM

Input line: Requested field: TGI. Item: `Cc1nc2ccccc2c(=O)n1NC(=S)Nc1ccccc1`
Output line: > 100 µM

Input line: // returns reported TGI for input `O=[N+]([O-])c1ccc2scc3c4ccccc4nc-3c2c1`
Output line: 2.32 µM

Input line: Any idea what its TGI is? The molecule is CC(C)=NNc1ncnc2c1ncn2C1OC(CO)C(O)C1O (configuration not stated)
Output line: > 100 µM

Input line: Which TGI value is on record for `C[C@H]1CC[C@@H]2[C@@H](C)C[C@H]3[C@@H]4C(C)(C)OC(=O)[C@]4(C)C(=O)[C@@]23C1=O` ?
Output line: > 100 µM

Input line: Given the molecule CCC(CN(C)C)C(=O)c1ccco1 (configuration not stated) , what is its reported TGI?
Output line: > 100 µM

Input line: // TGI lookup, key: `Nc1ccc2c(c1)Cc1ccccc1-2`
Output line: > 100 µM

Input line: Could you share which TGI value was measured for `Oc1ccc(CCl)c2cccnc12` ?
Output line: > 100 µM

Input line: Data request, read-out TGI, for `O=C1OC(c2ccccc2)=N/C1=C\c1ccc(F)cc1`
Output line: > 100 µM

Input line: Returns the measured TGI for the input molecule. Input: `C=CCN1C2Cc3cc(OC)c(OC)cc3C1Cc1cc(OC)c(OC)cc12`
Output line: > 100 µM

Input line: Fill blank: measured TGI of the molecule `CCOC(=O)Cn1nc2ccc(Nc3c(C)[n+]([O-])c4cc(F)c(OCC)cc4[n+]3[O-])cc2n1` is ____.
Output line: 71.8 µM

Input line: Item under review: O=c1ccn(C2OC(COC3CCCCO3)C(OC3CCCCO3)C2OC2CCCCO2)c(=O)n1-c1ccccc1 (configuration not stated) . Reported TGI?
Output line: > 100 µM

Input line: Look at this molecule and give its reported TGI. `FC(F)(F)CNc1nccc(-c2cnn3ncccc23)n1`
Output line: > 25 µM

Input line: Field request: TGI | item: `COc1cc(NC(=O)c2ccc(C(F)(F)F)nc2Nc2ccc(Cl)cc2C)cc(OC)c1OC`
Output line: 29.1 µM

Input line: Consider the molecule shown here: COC1/C=C/C(C)C(OC)CC(O)/C=C/C(C)C(C(C)C(OC)C(C)CCC(=O)C(C)C(C/C=C/N(C)C=O)OC)OC(=O)/C=C/C=C(\C)CC(OC)CC2=CC(=O)O[C@@H](C(C)C(OC)C1)[C@H]2O (some centres not stated) What is its recorded TGI?
Output line: 0.785 µM

Input line: Looking for the measured TGI of `FC(F)(F)c1cccc2ns[s+]c12` , can you help?
Output line: > 100 µM

Input line: Entry `CCc1nc(N)nc(N)c1-c1ccc(Cc2ccccc2)c([N+](=O)[O-])c1` has what TGI?
Output line: > 71.4 µM

Input line: Item `C=C1C/C(=C/C)C(=O)O[C@@H]2CCN3CC=C(COC(=O)[C@]1(C)O)[C@H]23` has what recorded TGI?
Output line: > 100 µM

Input line: Recorded TGI of CC1(C(=O)O)CCC(C(=O)O)C(C)(C)O1 (configuration not stated) , please.
Output line: > 100 µM

* * *

- System: OVCAR-5 ovarian
- Run description: NCI tumour cell line growth inhibition, 48 h
Value type: TGI

Input line: Name the reported TGI value associated with the molecule COc1ccc2c3c1O[C@H]1C(=O)C=CC4(n5[nH]c(=O)n(-c6ccccc6)c5=O)C(C2)N(C)CCC314 (stereo not given in full)
Output line: > 100 µM

Input line: Record request: TGI value, item `FC(F)(F)CNc1nccc(-c2cnn3ncccc23)n1`
Output line: > 25 µM

Input line: Name the reported TGI value associated with the molecule `COc1ccc2c(c1OC)CO[C@@H]2[C@H]1c2c(c(Br)c3c(c2OC)OCO3)CCN1C`
Output line: > 100 µM

Input line: Entry `CO/C(N)=C(\C#N)N=Cc1cccnc1` : reported TGI = ?
Output line: > 100 µM

Input line: Given `CN(C)c1ccc(/C=N/N=C2\C(=O)Nc3c(Cl)cc(Cl)cc32)cc1` , state its recorded TGI.
Output line: > 100 µM
